# Test system: Clostridium sporogenes DSM 1664
# methodSummary: fold change of Tryptamine concentration vs plate DMSO controls (fold change (ratio)); higher = more amine produced, active = hit call of the paper (significant change in both replicates, either direction)
# conditionSummary: incubation time: 27 h, anaerobic, 37 °C
Structures can show the parent of a compound that is named as a salt.
// reported fold change of Tryptamine concentration per item
Reply with just the number.

Here is how some compounds turned out for fold change of Tryptamine concentration.
INSERT INTO results (compound, assayedtarget, value) VALUES
  ('O=P(O)(O)C(O)(Cc1cccnc1)P(=O)(O)O [Risedronic acid monohydrate] (20 µM)', 'Clostridium sporogenes DSM 1664', 1.04),
  ('CCc1cccc(CC)c1NC(=O)CN(CC(=O)O)CC(=O)O [Etifenin] (20 µM)', 'Clostridium sporogenes DSM 1664', 1.02),
  ('C[C@H](O)[C@H](O)[C@H]1CNc2[nH]c(N)nc(=O)c2N1 [Sapropterin dihydrochloride] (20 µM)', 'Clostridium sporogenes DSM 1664', 0.972),
  ('CCN(CCO)CCCC(C)Nc1ccnc2cc(Cl)ccc12 (configuration not stated) [Hydroxychloroquine sulfate] (20 µM)', 'Clostridium sporogenes DSM 1664', 0.967),
  ('COc1cc2nc(N(C)CCCNC(=O)C3CCCO3)nc(N)c2cc1OC (configuration not stated) [Alfuzosin hydrochloride] (20 µM)', 'Clostridium sporogenes DSM 1664', 1),
  ('C[N+]1(C)CCC(OC(=O)C(O)(c2ccccc2)C2CCCC2)C1 (configuration not stated) [Glycopyrrolate bromide] (20 µM)', 'Clostridium sporogenes DSM 1664', 1.01);

Consider the additional compound presented here.
Incoming: What does the record list as fold change of Tryptamine concentration for CC(C)[C@H]1CC[C@H](C(=O)N[C@H](Cc2ccccc2)C(=O)O)CC1 [Nateglinide] (20 µM) ?
Outgoing: 0.94
